System: MDA-MB-231 breast
Test: NCI-60 one-dose screen, 48 h (100 = growth as untreated, 0 = no growth, -100 = all killed)
Settings: 10 µM unless noted
Description: Cells are grown in 96 well plates and exposed to the test compound for 48 hours. Compounds are tested at a single concentration, which is 10^-5 M for most compounds. The reported endpoint is percent growth (GI% or GIPRCNT), where numbers from 0 - 100% represent growth inhibition, and numbers from -100% - 0 represent cell death. For example, a value of 40 represents 60% growth inhibition. A value of 0 means no net growth occurred over the course of the experiment. […]
This is part of a sample that, as a whole, favours compounds with a hit. Of some 83,000 tested, about 20% had one in any assay.
This section presents compounds with their documented growth values.
observable: growth (%)

> print(dat)
                                    compound  quantity.unit  observed.value
 1  O=C(O)C1CCCCN1c1nc(Cl)nc(Cl)n1 (stereo not drawn)              %             110
 2  Fc1ccccc1-c1nc(-c2nc3cc(Cl)c(Cl)cc3[nH]2)c2ccccn12              %            91.4
 3  Cc1cc(C)n(-c2nnc3n2N=C(c2ccc(-c4ccccc4)cc2)CS3)n1              %            51.1
 4  COc1ccc(-c2nc(SCCC(C)C)nc(Nc3ccc(F)c(Cl)c3)c2C#N)cc1              %             100
 5               Clc1ccccc1-c1nc2ccccc2[nH]1              %             102
 6  Cc1csc(NC(c2ccccc2)c2c(C)nc3ccccn23)n1 (stereo not drawn)              %            96.8
 7  COc1ccc(-c2c(N)n[nH]c2-c2cc(OC)c3c(c2)OCCO3)cc1              %            87.7
 8             CCN(CC)CCCNc1nccc2ccc(Cl)cc12              %              87
 9                          CCCOC(=O)n1cccc1              %              99
10  O=C(/C=C/c1cc(-c2ccc3c(c2)OCO3)n[nH]1)c1ccc2c(c1)OCO2              %            92.4
11  Cc1cc(C2=NNC(=O)Cc3cc4c(cc32)OCCO4)cc(C)c1N              %            67.5
12  COc1cc(Nc2nc(N[C@H]3CCCC[C@@H]3N)nc3cc[nH]c(=O)c23)cc(OC)c1              %            38.4
13  CC(C)c1ccc2occ(C=C3C(=O)NC(=O)NC3=O)c(=O)c2c1              %            98.9
14  CC(C)C(C(=O)NCCN1CCOCC1)N1C(=O)/C(=C/c2ccc(Br)cc2)SC1=S (stereo not drawn)              %             108
15  COc1ccc(N2CCN(Cc3cc(C(=O)/C=C/c4c[nH]c5ccccc45)ccc3O)CC2)cc1              %             103
16  CO[C@H]1NC(=O)N(S(=O)(=O)c2ccc(Cl)cc2)[C@@H]1OC              %             108
17  COc1ccc(CN2CCc3c(Sc4ccccc4)nc(N)nc3C2=O)c(OC)c1              %              69
18  CCCCCCCCCCCC(=O)NCCC[N+](C)(C)CC(=O)[O-]              %            90.5
19  CCO/C=N/C1=C(C#N)C(c2ccc(Cl)cc2)c2c(c3ccc(C)cc3[nH]c2=O)O1 (stereo not drawn)              %            59.6
20  O=[N+]([O-])c1cccc(-c2nc3sccn3c2-c2ccnc(NCCCNS(=O)(=O)c3ccc(C(F)(F)F)cc3)n2)c1              %            57.3
21  COc1ccc(/C=C2\Oc3cc(OCCCN4CCCC4)ccc3C2=O)c(OC)c1              %            78.8
22  Cc1ccc(S(=O)(=O)Nc2c(Br)cc(Br)cc2C(N)=O)cc1              %             103
23  O=C1c2c(Cl)c(Cl)c(Cl)c(Cl)c2C(=O)C2(Cl)CC=CCC12Cl (stereo not drawn)              %            18.2
24   CCN(CC)c1ccc(C(=N)c2ccc(N(CC)CC)cc2)cc1              %           -63.3
25  Oc1ccc2cc(Br)ccc2c1-c1c(O)ccc2cc(Br)ccc12              %            50.1
26  COc1cc(C2CC(c3ccc4c(c3)OCO4)=NN2C(C)=O)cc(OC)c1OC (stereo not drawn)              %            61.3
27  O=C(Nc1cccc(-n2cc(-c3ccncc3)c(-c3ccc(Cl)c(O)c3)n2)c1)Nc1cc(C(F)(F)F)cc(C(F)(F)F)c1              %           -88.9
28                        C=COC(=O)CCCCCCCCC              %             102
29              O=C(O)/C=C/C(=O)c1ccc(Cl)cc1              %             122
30  CCOC(=O)c1cn2c3c(cc(C)cc3c1=O)C(=O)/C(=C/c1ccccc1)C2              %            87.2
31  O=C1CS/C(=N\Nc2cc(=O)[nH]c3ccccc23)N1c1ccccc1              %            78.3
32  CN(C)CCCN(c1nc(C(Cl)(Cl)Cl)ns1)c1nc(C(Cl)(Cl)Cl)ns1              %            39.4
33  Cc1ccc(-c2cc3nc(C(Cl)Cl)nc(-c4ccccc4C)n3n2)cc1              %            66.8
34  O=C(N/N=C/C=C\c1ccccc1)C(=O)N/N=C/C=C/c1ccccc1              %             111
35  CCOC(=O)c1c(/N=C2\SC(=O)/C(=C\C(=O)OC)N2NC)sc2c1CCN(C(=O)OCC)C2              %             100
36  CCOC(=O)C1C(=O)C=C(c2ccc(OC)cc2)CC1c1sc(N(C)Cc2ccccc2)nc1Cl (stereo not drawn)              %            68.3
37  CCCCCCCCCCCCCCCCCCNC(=O)[C@H]1CSC(c2ccc(OC)cc2O)N1 (stereo partly drawn)              %            38.1
38  Cc1c(C(=N)C(C#N)C#N)c(=N)oc2c1ccc1ccccc12              %            97.9
39                        S=C1CC(=S)NC(=S)N1              %             106
40  COc1cc(/C=C/C(=O)c2cccc(-n3cc(-c4cc(OC)c(OC)c(OC)c4)[nH]c3=O)c2)cc(OC)c1OC              %            35.4
41                          CCOC(=O)CC(=O)OC              %             121
42  CC12CCCC(CC(=O)c3[nH]c4ccccc4c31)C2 (stereo not drawn)              %            37.9
43   COc1ccc(NC(=O)c2cc(OC)c(OC)c(OC)c2)cc1O              %            58.5
